molecular target: antigen on NCI-H187 classic small cell lung carcinoma cells (ATCC Number: CRL-5804) recognised by PTA-2358; experiment: competition flow cytometry on NCI-H187 cells against mouse PTA-2358; CHO-K1-derived
measuredAttribute: Relative IC50 (fold of chimeric PTA-2358)

binder	quantitativeResult
PTA-2358 VH5/VK2 IgG1 antibody (antibody, V domains shown) VH: EVQLVQSGAEVKKPGASVKVSCTASGFNIKDYYMHWVRQAPGQGLEWIGWIDPGNGDTECAPKFQGRATITADTSISTAYMELSRLRSDDTAVYYCNAPYYSGSSHFDYWGQGTTVTVSS VL: DIVLTQSPDSLAVSLGERATINCRASKSVSASGYSFLHWYQQKPGQPPKLLIYLASNLESGVPDRFSGSGSGTDFTLTISSLQAEDVATYYCQHSRELRTFGQGTKLEIK	1.68
